ASSAY_CONDITIONS: 298.15 K; 101.33 kPa; Liquid
// boundary case: mass density equal to 2000 kg/m3 maps to FALSE; strictly smaller maps to TRUE

Examples from the recorded data:
CCOC(C)=O [ethyl acetate]    TRUE
BrCBr    FALSE
ClCBr    TRUE
ClCCBr    TRUE

input: hey, is mass density for ClCCCl lower than 2000 kg/m3 or not?
output: TRUE

---

ASSAY_CONDITIONS: 313.15 K; 101.33 kPa; Liquid; Vibrating tube method
READOUT_KIND: molar volume (m3/mol)
Number only, in m3/mol; omit the unit.

Example entries and their recorded answers appear below.
BrCBr    7.1e-05
ClCCBr    8.4e-05
ClCBr    6.9e-05
ClCCCl    8.1e-05

input: Bench note: what molar volume did CCOC(C)=O [ethyl acetate] show?
output: 0.000101

---

ASSAY_CONDITIONS: 313.15 K; Liquid; Ebulliometric method (Recirculating still)
// boundary case: vapor or sublimation pressure equal to 20 kPa maps to rule not met; strictly smaller maps to rule met

Examples from the recorded data:
ClCCBr    rule met
ClCBr    rule not met
CCOC(C)=O [ethyl acetate]    rule not met
ClCCCl    rule not met

Then this molecule:
input: hey, is vapor or sublimation pressure for BrCBr lower than 20 kPa or not?
output: rule met
